- assayOverview: NCI Yeast Anticancer Drug Screen. Data for the rad50 strain (AID 155);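 note: 0% = growth of vehicle-only cultures of the same strain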
- measurementParameters: S. cerevisiae rad50 strain growth inhibition; at 50.0 µM (retest, dose inferred, filed as 5.0); stronger effect = higher value
Compounds without any hit were thinned out: in the full panel of roughly 79,000, 15% have a hit.
parameterMeasured: growth inhibition (%)
Reply with just the number (in %).

Use the examples below as a reference point.
>>> val("O=C1OC(OCC#CCOC2OC(=O)C(Cl)=C2Cl)C(Cl)=C1Cl (stereo not drawn)")
99
>>> val("CCCCCC(CCCCC)OC(=O)CCN(CCCCC)CCCCC")
81
>>> val("O=[N+]([O-])C1C2C=CC(C2)[C@H]1c1ccc(Cl)cc1Cl (stereo partly drawn)")
70
>>> val("Nc1ccc2c(c1)[nH]c(=O)c1c(Cl)cccc12")
47
>>> val("CCOC(=O)C(=O)NNc1ccccc1")
89
>>> val("NC(CCCCCC(N)C(=O)O)C(=O)O (stereo not drawn)")
-146
>>> val("O=C(CCl)N1CCN(C(c2ccccc2)c2ccccc2)CC1")
96
>>> val("Cc1cc2ccc(N)nc2[nH]c1=O")
-4
>>> val("CC(C)CCOC(=O)Nc1cccc(Cl)c1")
76
>>> val("CCc1ccccc1SC(C)=O")
55

Give the measured growth inhibition of "Nc1ccc2c(c1)S(=O)(=O)c1cc(N)ccc1-2" .
27

# repeat for "COC(=O)/C=C(\C)Nc1ccc(Cc2ccc(Cl)cc2)cc1"
98

# repeat for CCC(C)(O)Cc1cnccn1 (stereo not drawn)
1

----------
- assayOverview: NCI Yeast Anticancer Drug Screen. Data for the mec2-1 strain (AID 157)
- measurementParameters: S. cerevisiae mec2-1 strain, at 5.0 µM (retest, dose inferred, filed as 0.5), stronger effect = higher value
Compounds without any hit were thinned out: in the full panel of roughly 79,000, 15% have a hit.
Reported growth inhibition by item:
Reply with just the number (in %).

>>> val("O=c1ccc([N+](=O)[O-])c[nH]1.[Ag]")
99
>>> val("C/C(=N/NC(N)=S)C(C)C")
2
>>> val("CSc1ccc(C(=O)C(=O)c2ccc(SC)s2)s1")
-15

Give the measured growth inhibition of "C(=C\[n+]1ccc2ccccc2c1)/c1ccccc1" .
-2

# repeat for "O=C(/C(=C/c1ccc(Cl)cc1)c1ccccc1)c1ccc(O)cc1"
64

# repeat for "O=C1OC(c2ccccc2)=N/C1=C\c1ccc(Oc2ccc(Cl)c(Cl)c2)cc1"
14

# repeat for "CCC[CH2][Sn]([CH2]CCC)([NH]c1ncnc2[nH]cnc12)[NH]c1ncnc2[nH]cnc12"
14

# repeat for COc1ccc(C2C3=C(CC(C)(C)CC3=O)Oc3cc4c(cc32)OCO4)c(OC)c1 (stereo not drawn)
16

# repeat for "CCN(CC)c1ccc2nc3ccc(N(CC)CC)cc3[n+](-c3ccccc3)c2c1"
100

----------
- assayOverview: NCI Yeast Anticancer Drug Screen. Data for the rad50 strain (AID 155);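 note: 0% = growth of vehicle-only cultures of the same strain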
- measurementParameters: S. cerevisiae rad50 strain growth inhibition; at 5.0 µM (retest, dose inferred, filed as 0.5)
The panel holds about 79,000 compounds, 15% with a hit somewhere; the sample as a whole holds those more often. Active and inactive are the calls of the source. No stated cut-off is given here; in the data, active means growth inhibition above about 70%; inactive means the rest.
Give your call using only these classes: true (active), false (inactive)

Reference set, count: 2
>>> assignedclass("Nc1ccccc1CCc1ccccc1")
"false"
>>> assignedclass("Oc1cccc(/C=C/c2ccncc2)c1")
"false"

Please share the test call associated with O=C(CC(O)(C(F)(F)F)C(F)(F)Cl)CC(O)(C(F)(F)F)C(F)(F)Cl (centres undefined) .
true

# repeat for CCCCCCCCCCCCCCC/C([O-])=N/[N+](C)(C)CC(C)O (centres undefined)
true

# repeat for "CCc1cccc(C(C)C)c1N1C(=O)C(=O)C(c2nc3ccccc3s2)C(=O)C1=O"
false

# repeat for "Nc1cccc2cccnc12"
false

# repeat for "Cc1cc(C)cc([C@H](C)N=Cc2cc(Br)ccc2O)c1"
false

----------
- assayOverview: NCI Yeast Anticancer Drug Screen. Data for the rad50 strain (AID 155);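 note: 0% = growth of vehicle-only cultures of the same strain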
- measurementParameters: S. cerevisiae rad50 strain growth inhibition; at 50.0 µM (retest, dose inferred, filed as 5.0)
- Protocol: Growth inhibition of yeast strains with defined genetic alterations is measured as a screen for potential anti-cancer activity. Selected strains with alterations in DNA damage repair or cell cycle control were exposed to compounds and growth inhibition was measured relative to vehicle treated controls. The strain used in this assay is rad50
The panel holds about 79,000 compounds, 15% with a hit somewhere; the sample as a whole holds those more often. Active and inactive are the calls of the source. Rule as the data show it: active = growth inhibition above about 70%; inactive = the rest.
Give your call using only these classes: active, inactive

Reference set, count: 6
>>> assignedclass("CC1=C(C(=O)Nc2cccc(Cl)c2)C(c2ccccc2F)C(C(=O)Nc2cccc(Cl)c2)=C(C)N1")
"inactive"
>>> assignedclass("N#Cc1c(-c2ccc(Cl)c(Cl)c2)c(-c2ccc(Cl)c(Cl)c2)nn(CCO)c1=O")
"active"
>>> assignedclass("Cc1c(N)ccc(O)c1C")
"inactive"
>>> assignedclass("CCc1c(O)sc2c(c1=O)C(=NCC(C)C)CC(C)(C)N2")
"inactive"
>>> assignedclass("CN(C)CCOC(=O)c1ccccc1")
"active"
>>> assignedclass("C=C(C)COc1cc(NC(=S)OC(C)C)ccc1Cl")
"active"

Please share the test call associated with "Cc1ccc2ccc3c(CCN(C)C)cc4c(c3c2c1O)OCO4" .
inactive

# repeat for "Nc1n[nH]c(=O)c2cccnc12"
inactive

----------
- assayOverview: NCI Yeast Anticancer Drug Screen. Data for the mlh1 rad18 strain (AID 175)
- measurementParameters: S. cerevisiae mlh1 rad18 strain growth inhibition; at 50.0 µM
The panel holds about 79,000 compounds, 15% with a hit somewhere; the sample as a whole holds those more often. The source made the active and inactive calls. No stated cut-off is given here; in the data, active means growth inhibition above about 70%; inactive means the rest.
Give your call using only these classes: t for active, f for inactive

Reference set, count: 3
>>> assignedclass("NC(=O)C1(Br)C=[N+](Cc2ccccc2)CCC1 (configuration not stated)")
"f"
>>> assignedclass("NC(=S)N1N=C2c3ccccc3CCC[C@H]2[C@@H]1c1ccccc1")
"f"
>>> assignedclass("COC1OC(CBr)C(OC(C)=O)C(OC(C)=O)C1OC(C)=O (configuration not stated)")
"f"

Please share the test call associated with "CC1(C)NC(=O)C(C)(C)NC1=O" .
f

# repeat for N#CC(O)C(Br)(Br)Br (configuration not stated)
t

# repeat for COc1ccc(Br)c2c1CC(C(=O)O)CC2 (configuration not stated)
f

# repeat for "Cc1cc2nc(-c3ccccc3[N+](=O)[O-])[nH]c2cc1C"
f

----------
- assayOverview: NCI Yeast Anticancer Drug Screen. Data for the cln2 rad14 strain (AID 165);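 note: 0% = growth equal to vehicle treated cultures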
- measurementParameters: S. cerevisiae cln2 rad14 strain, at 50.0 µM (retest, dose inferred, filed as 5.0)
About 79,000 compounds went through this panel and 15% of them were active in at least one assay; those are over-represented in the sample as a whole. The source made the active and inactive calls. Rule as the data show it: active = growth inhibition above about 70%; inactive = the rest.
Give your call using only these classes: active, inactive

>>> assignedclass("O=C(O)c1c(Cl)c(Cl)c(Cl)c(Cl)c1-c1c2ccc(=O)cc-2oc2cc(O)ccc12")
"active"

Please share the test call associated with "O=C(CNc1ccccc1[N+](=O)[O-])Nn1c(-c2ccccc2)nc2ccccc2c1=O" .
inactive

# repeat for "O=C(CCl)N1CCN(C(c2ccccc2)c2ccccc2)CC1"
active

# repeat for "Oc1ccc2ccccc2c1I"
active

# repeat for "C=CCNc1nc2c(s1)C(=O)c1ccccc1C2=O"
active

# repeat for "Fc1ccc(NC(=S)SCc2ccco2)cc1"
inactive

----------
- assayOverview: NCI Yeast Anticancer Drug Screen. Data for the bub3 strain (AID 167)
- measurementParameters: S. cerevisiae bub3 mutant strain, at 50.0 µM
Compounds without any hit were thinned out: in the full panel of roughly 79,000, 15% have a hit. Calls of active or inactive are those of the source. Rule as the data show it: active = growth inhibition above about 70%; inactive = the rest.
Give your call using only these classes: true for active, false for inactive

Please share the test call associated with "Cc1ccc2nc(N/N=C/c3cccc(C)n3)cc(C)c2c1" .
true

# repeat for "Clc1ncccc1-n1cccc1/C=N\N=C/c1cccn1-c1cccnc1Cl"
false

----------
- assayOverview: NCI Yeast Anticancer Drug Screen. Data for the cln2 rad14 strain (AID 165);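 note: 0% = growth equal to vehicle treated cultures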
- measurementParameters: S. cerevisiae cln2 rad14 strain, at 50.0 µM (retest, dose inferred, filed as 5.0), stronger effect = higher value
Compounds without any hit were thinned out: in the full panel of roughly 79,000, 15% have a hit.
parameterMeasured: growth inhibition (%)
Reply with just the number (in %).

Use the examples below as a reference point.
>>> val("CN1CCCC(C(=O)OCC(=O)C2(O)CCC3C4CCC5=CC(=O)CCC5(C)C4C(O)CC32C)C1 (stereo unspecified)")
8
>>> val("O=[N+]([O-])c1ccc(/C=N/O)s1")
95
>>> val("O=C(/C=C/c1cc(O)c(O)cc1O)OCCc1ccccc1")
33
>>> val("CC(=O)SCC(=O)Nc1ccc(Cl)cc1")
43
>>> val("CCN(C(C)=O)c1ccc2c(c1)Cc1ccccc1-2")
96

Give the measured growth inhibition of O=C(NNc1ccccc1)C(O)C(=O)C(O)C(O)C(O)CO (stereo unspecified) .
14
